System: CD2F1 mice, L1210 leukemia sc, survival T/C
Assay: NCI In Vivo Anticancer Drug Screen. Data for tumor model L1210 Leukemia (subcutaneous) in CD2F1 (CDF1) mice
Settings: endpoint: median survival time; dose: 50.0 mg/kg/injection; schedule: Q01DX009 (ip); vehicle: saline; higher = longer survival
Procedure: The antitumor activity of compounds was measured in mice bearing transplantable tumors. Survival or tumor size were measured and the results are expressed as the measurement made in the treated group (T) divided by the measurement made in the vehicle treated control group (C). The tumor model used in this assay is L1210 Leukemia (subcutaneous) in CD2F1 (CDF1) mice
Inconclusive results and toxic doses are left out.
measuredMetric: T/C

Tell us which T/C value is on record for O=c1[nH]cc(F)c(=O)[nH]1
150 % of control

Supply reported T/C belonging to this compound: CC(=O)NNC(=O)c1ccccn1
104 % of control

Query T/C for CN(CCN(C)C(=O)CCOS(C)(=O)=O)C(=O)CCOS(C)(=O)=O
123 % of control

Supply T/C value. Item: Cc1c(-c2ccc(-c3ccccc3F)cc2)nc2ccc(F)cc2c1C(=O)O
150 % of control

Cited source: PubChem BioAssay AID258
